Test: method code SF, from DOI: 10.1021/jf00070a034
value type: logP

In the examples that follow, each entry is paired with its recorded logP.
{"columns": ["molecule", "logP"],
 "data": [
  ["CN(C)C(=O)Nc1ccc(Cl)cc1", 2.01],
  ["CC1(NC(=O)Nc2ccccc2)CCCCC1", 3.6],
  ["CC(C)CNC(=O)Nc1ccc(Cl)c(Cl)c1", 4.48]
]}

(a) CCNc1nc(Cl)nc(NC2CCC2)n1
(b) CCCCCC(C)Nc1nc(Cl)nc(NCC)n1 (centres undefined)
(c) CNC(=O)Nc1cccc(OC)c1
[ask] # rank_down: sort by logP, max first Submit the labels in the order that the ranking request calls for.
[reply] b, a, c
(b: 4.74, a: 2.77, c: 1.26)

---

Test: method code SF, from DOI: 10.1021/jf00070a034
value type: logP

{"columns": ["compound", "logP"],
 "data": [
  ["CCNc1nc(Cl)nc(NCC2CC2)n1", 2.85],
  ["CCNc1nc(Cl)nc(NC2CC2)n1", 2.13]
]}

(A) O=C(Cc1ccccc1)Nc1ccccc1
(B) CCCC(C)C(=O)Nc1ccc(C)c(Cl)c1 (centres undefined)
[ask] Hey, between A and B which has a smaller measured logP? Choose, then provide that item's label.
[reply] A

---

Assay: method code SF, from DOI: 10.1021/jf00070a034
value type: logP

{"columns": ["molecule", "obs value"],
 "data": [
  ["CCCC(C)(C)C(=O)Nc1ccc(Cl)cc1", 3.83],
  ["CN(C)C(=O)Nc1cccc(CCc2ccccc2)c1", 3.21],
  ["CN(C)C(=O)Nc1cccc(Cc2ccccc2)c1", 2.83],
  ["CCNc1nc(Cl)nc(NC2CCCCC2)n1", 3.63],
  ["CCCc1ccc(NC(=O)N(C)C)cc1", 2.55],
  ["C=CC(C)C(=O)Nc1ccc(Cl)c(Cl)c1 (stereo not drawn)", 3.49],
  ["O=C(Cc1ccccc1)Nc1ccc([N+](=O)[O-])cc1", 3.17],
  ["C=CCNc1nc(Cl)nc(NCC=C)n1", 2.75]
]}

Data provenance is the SangsterLogP compilation.
